test: Specific activity of purified CHI, absorbance decrease at 384 nm, 4-O-methyl butein; note: unit not given here
Assay type: biochemical
condition-label: purified CHI in 50 mM PBS, 100 μM substrate, 25° C.

molecule	Specific activity, 4-O-methyl butein
CHIera Mut5: Chalcone isomerase variant 5 from Eubacterium ramulus, genetically engineered (protein, listed as Eubacterium ramulus) MADFKFEPMRSLIYVDCVSEDYRPKLQRWIYKVHIPDSISKFEPYVTKYAFYPSFPIPPQGDRFGYARMQLTEHHWLVSPLDPRLEINAIAETFPMDVLVWQGQIPAAAHTDAQIDSDGDAGRAAKKSNNAEGNPFIFAFLPMWWEKDLKGKGRTIEDGANYRFNMTIGFPEGVDKAEGEKWLFEKVVPILQAAPECTRVLASAVKKDINGCVMDWVLEIWFENQSGWYKVMVDDMKALEKPSWAQQDAFPFLKPYHNVCSAAVADYTPSNNLANYRGYITMR	0.1
CHIera Mut3: Chalcone isomerase variant 3 from Eubacterium ramulus, genetically engineered (protein, listed as Eubacterium ramulus) MADFKFEPMRSLIYVDCVSEDYRPKLQRWIYKVHIPDSISNFEPYVTKYAFYPSFPIPPQGDRFGYARMQLTEHHWLVSELDPRLEIKAIAETFPMDVLVWQGQIPAAAHTDAQIDSDGDAGRAAGKSNNAEGNPFIFAFLPMWWEKDLKGKGRTIEDGANYRFNMTIGFPEGVDKAEGEKWLFEKVVPILQAAPECTRVLASAVKKDINGCVMDWVLEIWFENQSGWYKVMVDDMKALEKPSWAQQDAFPFLKPYHNVCSAAVADYTPSNNLANYRGYITMR	0.3

Reference source: patent US20240150797A1
